Catalogue of compounds with associated GI50
Tested on: SK-MEL-2
EXPERIMENTAL PROTOCOL: NCI tumour cell line growth inhibition, 48 h
The source made the active and inactive calls. No stated cut-off is given here; in the data, active = GI50 up to about 1.1 µM and inactive = higher.
MEASURE NAME: GI50

COMPOUND: O=C(c1ccc2ccccc2c1O)N1CCCCC1
MEASURED RESULT: > 100 µM (inactive)
--
COMPOUND: N=C(N)SCCc1ccncc1
MEASURED RESULT: > 100 µM (inactive)
--
COMPOUND: CC(C)(C)c1cc(C(=O)/C=C/C=C/c2ccccc2)cc(C(C)(C)C)c1O
MEASURED RESULT: 11.7 µM (inactive)
--
COMPOUND: COc1cccc(C2c3cc4c(cc3OC(N3CCCCC3)C2C)OCO4)c1O (stereo unspecified)
MEASURED RESULT: 9.16 µM (inactive)
--
COMPOUND: Cc1c2c(n3c(nc4ccccc43)c1C#N)SCC2
MEASURED RESULT: > 10 µM (inactive)
--
COMPOUND: O=C(O/N=C1/CCCC/C1=C\c1ccccc1)c1ccc(Cl)cc1
MEASURED RESULT: > 100 µM (inactive)
